Target: human FXR-LBD (GST-FXR-LBD) (Homo sapiens)
Construct: the human FXR-LBD (residues 234–472) was expressed as a GST fusion protein GST-FXR-LBD; made in house; host or cells: E. coli BL21(DE3)
Sequence (Q96RI1 248-486): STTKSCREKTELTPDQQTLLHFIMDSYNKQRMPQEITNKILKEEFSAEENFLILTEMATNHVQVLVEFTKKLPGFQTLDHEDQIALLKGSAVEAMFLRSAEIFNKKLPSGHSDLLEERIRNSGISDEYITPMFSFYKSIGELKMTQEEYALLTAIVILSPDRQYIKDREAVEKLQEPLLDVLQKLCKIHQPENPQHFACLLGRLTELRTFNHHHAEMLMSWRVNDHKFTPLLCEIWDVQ
Assay: HTRF coactivator recruitment assay, antagonist mode (in the presence of 50 μM CDCA)
Format: biochemical
Conditions: 50 μM compound in the presence of 50 μM CDCA; standardized against positive control DY268 (50 μM = 100%)
Label yes (1) when Relative activity, antagonist mode >= 20%; otherwise no (0).

1) O=C(Nc1ccc(Cl)cc1)Nc1ccc(Cl)c(Cl)c1 [TCC, triclocarban]	no (0)
2) CC(=O)c1cc2c(cc1C)C(C)(C)C(C)CC2(C)C (stereo not drawn) [AHTN, tonalid]	yes (1)
3) CC(C)(C)CC(C)(C)c1ccc(O)c(-n2nc3ccccc3n2)c1 [UV329, octrizole]	no (0)
4) O=P(Oc1ccccc1)(Oc1ccccc1)Oc1ccccc1 [TPHP, triphenyl phosphate]	yes (1)
5) CCCCCCCCCCCCCCCC(=O)NCCO [PEA, palmitoyl ethanolamide]	no (0)
6) N#Cc1nn(-c2c(Cl)cc(C(F)(F)F)cc2Cl)c(N)c1S(=O)(=O)C(F)(F)F [FIP-S, fipronil sulfone]	no (0)

Reference for the values: paper PMC12010937
